# method notes: Pharmacokinetics of TET in blood after a single i.v. administration in normal and LPS-induced ALI mice
# conditions: male, BALB/c, mouse, in vivo, iv, 5 mg/kg, normal mice; 5 mg/kg i.v.; blood; read-out: Vss
measured parameter: Vd (L/kg)
// units = L/kg; emit number, no label

Entry COc1ccc2cc1Oc1ccc(cc1)C[C@H]1c3cc(c(OC)cc3CCN1C)Oc1c(OC)c(OC)cc3c1[C@H](C2)N(C)CC3 — recorded Vd = 7.71

---

# method notes: Tissue distribution of TET after a single i.t. administration in normal and LPS-treated mice
# conditions: BALB/c, mouse, muscle, other: intratracheal (i.t.), 15 mg/kg, Kp (AUC in tissue divided by AUC in blood), LPS-treated mice; 15 mg/kg i.t.; muscle
# Experimental: The different tissue distribution characteristics of TET in normal and pneumonia model mice via i.t. delivery were investigated. Thirty BALB/c mice were randomly divided into ten groups (n = 3 for each group). […] Pharmacokinetic parameters including t1/2, AUC(0-t), AUC(0-∞), and MRT were calculated using WinNonlin 7.0 (Pharsight, CA) by the non-compartmental model. […] Blood clearance (CL) was calculated as the i.v. dose divided by AUCinf. […]
measured parameter: Kp
Respond numerically, and do not add a unit to the figure.

Entry COc1ccc2cc1Oc1ccc(cc1)C[C@H]1c3cc(c(OC)cc3CCN1C)Oc1c(OC)c(OC)cc3c1[C@H](C2)N(C)CC3 — recorded Kp = 2.2
